B1: TRIM55 (parent)
chain: YKSFSKEQQTMDNLEKQLICPICL

variants of: B1; assay: protein stability index of a GFP-peptide fusion (GPS, HEK-293T) (PSI 1-6); higher = more stable; settings: c terminus: a fixed tail appended;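 further: lentivirally expressed fusions sorted by FACS into six bins by GFP to DsRed ratio, PSI derived from sequencing read proportions per bin multiplied by bin number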
A collection of variants and their measured protein stability index
Form rule: numeric answer, no unit written next to it.

These solved cases illustrate the format of a correct answer.
[[record]]
mutation_descriptor = "K6M"
endpoint_value = 1.57

[[record]]
mutation_descriptor = "E15S"
endpoint_value = 1.79

[[record]]
mutation_descriptor = "D12G"
endpoint_value = 2.56


Bench note: what protein stability index did Y1Q show?
2.15

FYI, the data here is from the supplement of paper PMC10567573.
